As shown below, each of these compounds has a reported inhibition of viability value.
# MEASUREMENT_PROTOCOL: HCT116 colon cancer cell growth inhibition, primary screen, CellTiter-Glo luminescence, NPC library (AID 1117342)
# EXPERIMENTAL_CONTEXT: at 20 µM (top of the series)
Lab book: enter the figure in %, no units written.

Below, 3 compounds whose answers are already recorded.
{"columns": ["COMPOUND", "inhibition of viability / %"],
 "data": [
  ["COc1c2c(cc3c1OCO3)CCN(C)C2", -4.7],
  ["O=c1n(Cl)c(=O)n(Cl)c(=O)n1Cl", 13.9],
  ["CCOC(=O)C(c1c(O)c2ccccc2oc1=O)c1c(O)c2ccccc2oc1=O", 5.5]
]}

// inhibition of viability lookup, compound = CNCC(O)c1ccc(O)cc1 (stereo not drawn) , result: -4

// inhibition of viability lookup, compound = CC(C)NCC(O)c1ccc([N+](=O)[O-])cc1 (stereo not drawn) , result: 17.5
